# target_under_test: ScNbp2
# assay_procedure: SPOT peptide array binding signal intensity (averaged, normalized) (arbitrary units (background-subtracted, floor 0; scale differs between SH3 domains)); higher = stronger binding of the SH3 domain to the peptide
experimental_endpoint: SPOT peptide array binding signal intensity

{"binder": "STPQTMRQAPKRPDA", "censor_symbol": "=", "measured_value": 2290}
{"binder": "ANNQGPPNLPARDKS", "censor_symbol": "≤", "measured_value": 0}
{"binder": "YSRKKLPVVLSKMTL", "censor_symbol": "=", "measured_value": 95}
{"binder": "TKHKAPPPPPPTAET", "censor_symbol": "=", "measured_value": 3.5}
